Target: Carbonic anhydrase 1 (Homo sapiens, UniProt P00915)
Sequence (P00915 whole entry): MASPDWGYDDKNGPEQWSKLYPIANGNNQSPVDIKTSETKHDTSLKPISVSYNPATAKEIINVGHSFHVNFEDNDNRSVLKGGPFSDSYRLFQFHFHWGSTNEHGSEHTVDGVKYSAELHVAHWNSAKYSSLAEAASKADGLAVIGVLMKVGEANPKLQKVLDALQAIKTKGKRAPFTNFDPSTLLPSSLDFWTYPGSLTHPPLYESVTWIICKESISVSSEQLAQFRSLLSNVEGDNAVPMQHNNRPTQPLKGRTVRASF
Experiment: Inhibition of recombinant human CA1 pre-incubated for 15 mins prior to testing by phenol red-based stopped-flow CO2 hydration assay
Doc: threshold 300 nM (exclusive). Items with Ki beneath it return True; others return False.

[[record]]
molecule = "COc1ccc(C(=O)CNc2cccc(S(N)(=O)=O)c2)cc1"
system_tested = "Carbonic anhydrase 1 (Homo sapiens, UniProt P00915)"
group = "False"

[[record]]
molecule = "CCOC(=O)C(C(=O)Nc1ccc(S(N)(=O)=O)cc1)c1ccccc1 (configuration not stated)"
system_tested = "Carbonic anhydrase 1 (Homo sapiens, UniProt P00915)"
group = "False"

[[record]]
molecule = "CC(C)C(C(=O)Nc1cccc(S(N)(=O)=O)c1)C(=O)c1ccccc1 (configuration not stated)"
system_tested = "Carbonic anhydrase 1 (Homo sapiens, UniProt P00915)"
group = "False"

[[record]]
molecule = "CC(C)OC(=O)C(Nc1ccc(S(N)(=O)=O)cc1)C(=O)OC(C)C"
system_tested = "Carbonic anhydrase 1 (Homo sapiens, UniProt P00915)"
group = "True"

[[record]]
molecule = "COC(=O)C(Nc1ccc(S(N)(=O)=O)cc1)C(=O)c1ccccc1OC (configuration not stated)"
system_tested = "Carbonic anhydrase 1 (Homo sapiens, UniProt P00915)"
group = "False"

[[record]]
molecule = "COCC(=O)C(Nc1ccc(S(N)(=O)=O)cc1)C(=O)OC (configuration not stated)"
system_tested = "Carbonic anhydrase 1 (Homo sapiens, UniProt P00915)"
group = "True"

[[record]]
molecule = "CCOC(=O)C(Nc1ccc(S(N)(=O)=O)cc1)c1ccc(OC)c(OC)c1 (configuration not stated)"
system_tested = "Carbonic anhydrase 1 (Homo sapiens, UniProt P00915)"
group = "False"

[[record]]
molecule = "CCOC(=O)C(Nc1cccc(S(N)(=O)=O)c1)C(=O)c1ccccc1 (configuration not stated)"
system_tested = "Carbonic anhydrase 1 (Homo sapiens, UniProt P00915)"
group = "False"

[[record]]
molecule = "CC(C)(C)C(=O)CNc1cccc(S(N)(=O)=O)c1"
system_tested = "Carbonic anhydrase 1 (Homo sapiens, UniProt P00915)"
group = "False"

[[record]]
molecule = "CCOC(=O)C(C(=O)Nc1ccc(S(N)(=O)=O)cc1)C(C)C (configuration not stated)"
system_tested = "Carbonic anhydrase 1 (Homo sapiens, UniProt P00915)"
group = "True"

[[record]]
molecule = "NS(=O)(=O)c1ccc(NC2CCCCCC2=O)cc1 (configuration not stated)"
system_tested = "Carbonic anhydrase 1 (Homo sapiens, UniProt P00915)"
group = "True"

